- experimental.details: Inhibition of thrombin
Listed next: entries and their corresponding IC50.
Numbers only; they are read as µM.

{"compound": "CC[C@H](C)[C@@H](NC(=O)[C@H](O)Cc1cc(Br)c(O)c(Br)c1)C(=O)N1[C@H](C(=O)NCCCCNC(=N)N)C[C@@H]2CC[C@@H](O)C[C@@H]21 (relative stereo)", "measurement.label": "IC50", "unit.info": "µM", "result.number": 12.9}

Now examine the next entry.
Tell us which IC50 value is on record for CC[C@H](C)[C@@H](NC(=O)[C@H](O)Cc1cc(Cl)c(O)c(Br)c1)C(=O)N1[C@H](C(=O)NCCCCNC(=N)N)C[C@@H]2CC[C@@H](O)C[C@@H]21 (relative stereo)
12.8
